Ref: patent US6794377B2

Listed here: items and their measured IC50.
Target: Kv1.5 channels from humans (Homo sapiens)
Construct: expressed in transfected cells; host or cells: Xenopus laevis oocytes injected with in vitro synthesized RNA
Test: Kv1.5 currents in Xenopus oocytes, 2-microelectrode voltage clamp
Type: cell-based
Conditions: human Kv1.5 expressed in Xenopus laevis oocytes; voltage jumps to 0 mV and 40 mV lasting 500 ms; room temperature; Hill equation; read-out: IC50

{"columns": ["Compound", "Unit", "Measurement Qualifier", "IC50"],
 "data": [
  ["C[C@H](OC(=O)NCc1ccccc1-c1cccnc1C(=O)NCC1CC1)c1ccccc1", "µM", "=", 0.4],
  ["CC(C)CCNC(=O)c1ccncc1-c1ccccc1CNC(=O)OC(C)(C)C", "µM", "<", 100],
  ["C[C@H](OC(=O)NCc1cnccc1-c1ccccc1C(=O)NCCc1cccnc1)c1ccccc1", "µM", "=", 4.7],
  ["COc1ccc(CCC(=O)NCc2ccccc2-c2cccnc2C(=O)N[C@@H](CC(C)C)C(N)=O)cc1", "µM", "<", 100],
  ["CC(CC(=O)NCc1ccccc1-c1cccnc1C(=O)NCC1CC1)c1ccc(F)cc1 (centres unmarked)", "µM", "=", 3.1],
  ["C[C@H](OC(=O)NCc1ccccc1-c1cccnc1C(=O)NCCc1ccccn1)c1ccccc1", "µM", "=", 0.6],
  ["O=C(CCc1cccc(OC(F)(F)F)c1)NCc1ccccc1-c1cccnc1C(=O)NCC1CC1", "µM", "=", 1.8],
  ["CC(C)(C(=O)NCc1ccccc1-c1cccnc1C(=O)NCCc1ccccn1)c1ccc(Cl)cc1", "µM", "=", 0.9]
]}

====

Entries annotated with measured pIC50
Biological target: Kv1.5 channels from humans (Homo sapiens)
Construct: expressed in transfected cells; host or cells: Xenopus laevis oocytes injected with in vitro synthesized RNA
Experiment: Kv1.5 currents in Xenopus oocytes, 2-microelectrode voltage clamp
Assay type: cell-based
Details: human Kv1.5 expressed in Xenopus laevis oocytes; voltage jumps to 0 mV and 40 mV lasting 500 ms; room temperature; Hill equation; read-out: IC50
pIC50: −log10 of the molar value.
Measured Quantity: pIC50

{"columns": ["Compound", "Measured Quantity", "Measurement Qualifier", "Recorded Result"],
 "data": [
  ["COc1ccc(NC(=O)c2ncccc2-c2ccccc2CNC(=O)O[C@@H](C)c2ccccc2)cc1 [Example 21]", "pIC50", "=", 5.70],
  ["O=C(NCc1ccccc1-c1ncccc1C(=O)NCc1ccc(F)cc1F)OCc1ccccc1 [Example 29]", "pIC50", "=", 5.12],
  ["COc1ccc(CC(=O)NCc2ccccc2-c2cccnc2C(=O)N[C@@H](CC(C)C)C(N)=O)cc1 [Example 39]", "pIC50", ">", 4.00],
  ["CC(CC(=O)NCc1cnccc1-c1ccccc1C(=O)NCC1CC1)c1ccc(F)cc1 (stereo not drawn) [Example 54]", "pIC50", ">", 4.00],
  ["CC(CC(=O)NCc1ccccc1-c1cccnc1C(=O)NCCc1cccnc1)c1ccc(F)cc1 (stereo not drawn) [Example 59]", "pIC50", "=", 5.49],
  ["CC(C)(C)OC(=O)NCc1ccccc1-c1nccnc1C(=O)NCc1ccc(F)cc1F [Example 8]", "pIC50", ">", 4.00],
  ["CC(C)CCNC(=O)c1cccnc1-c1ccccc1CNC(=O)OC(C)(C)C [Example 5]", "pIC50", ">", 4.00],
  ["CC(C)(C)OC(=O)NCc1ccccc1-c1cnccc1C(=O)NCc1ccc(F)cc1F [Example 4]", "pIC50", ">", 4.00],
  ["CC(C)C[C@H](NC(=O)c1nccnc1-c1ccccc1CNC(=O)O[C@@H](C)c1ccccc1)C(N)=O [Example 31]", "pIC50", ">", 4.00],
  ["O=C(Cc1ccc(OC(F)(F)F)cc1)NCc1cnccc1-c1ccccc1C(=O)NCCc1cccnc1 [Example 56]", "pIC50", "=", 5.21],
  ["CC(C)CCNC(=O)c1ncccc1-c1ccccc1CNC(=O)OCc1ccccc1 [Example 18]", "pIC50", "=", 5.59],
  ["O=C(CCc1cccc(OC(F)(F)F)c1)NCc1ccccc1-c1cccnc1C(=O)NCCc1cccnc1 [Example 60]", "pIC50", "=", 5.51],
  ["COc1ccc(CCC(=O)NCc2ccccc2-c2cccnc2C(=O)Nc2ccc(OC)cc2)cc1 [Example 44]", "pIC50", "=", 5.17],
  ["O=C(CCc1cccc(OC(F)(F)F)c1)NCc1ccccc1-c1cccnc1C(=O)NCCc1ccccn1 [Example 63]", "pIC50", "=", 5.74],
  ["COc1ccc(CCC(=O)NCc2ccccc2-c2cccnc2C(=O)NCCc2ccccn2)cc1 [Example 38]", "pIC50", "=", 5.25],
  ["Cc1onc(-c2ccccc2)c1C(=O)NCc1ccccc1-c1cccnc1C(=O)NCC1CC1 [Example 48]", "pIC50", "=", 5.62],
  ["CC(C)CCNC(=O)c1ccccc1-c1ccncc1CNC(=O)OC(C)(C)C [Example 9]", "pIC50", ">", 4.00],
  ["C[C@H](OC(=O)NCc1ccccc1-c1cccnc1C(=O)NCCc1cccnc1)c1ccccc1 [Example 58]", "pIC50", "=", 6.15],
  ["C[C@H](CC(=O)NCc1ccccc1-c1cccnc1C(=O)NCC1CC1)c1ccccc1 [Example 35]", "pIC50", "=", 6.40],
  ["COc1ccc(NC(=O)c2nccnc2-c2ccccc2CNC(=O)OC(C)(C)C)cc1 [Example 12]", "pIC50", ">", 4.00],
  ["CC(C)(C)OC(=O)NCc1ccccc1-c1ncccc1C(=O)NCc1ccc(F)cc1F [Example 6]", "pIC50", ">", 4.00],
  ["CCOc1ccc(C(=O)NCc2ccccc2-c2cccnc2C(=O)Nc2ccc(OC)cc2)cc1 [Example 43]", "pIC50", ">", 4.00],
  ["C[C@H](CC(=O)NCc1ccccc1-c1cccnc1C(=O)NC[C@@H](C)O)c1ccccc1 [Example 67]", "pIC50", ">", 4.00],
  ["C[C@H](CC(=O)NCc1ccccc1-c1cccnc1C(=O)NCc1cccnc1)c1ccccc1 [Example 46]", "pIC50", "=", 5.57],
  ["O=C(Cc1ccc(OC(F)(F)F)cc1)NCc1cnccc1-c1ccccc1C(=O)NCC1CC1 [Example 55]", "pIC50", "=", 5.42],
  ["COc1ccc(CC(=O)NCc2ccccc2-c2cccnc2C(=O)NCCc2ccccn2)cc1 [Example 36]", "pIC50", ">", 4.00],
  ["CCOc1ccc(C(=O)NCc2ccccc2-c2cccnc2C(=O)N[C@@H](CC(C)C)C(N)=O)cc1 [Example 40]", "pIC50", ">", 4.00],
  ["CC(C)CCNC(=O)c1ccncc1-c1ccccc1CNC(=O)OCc1ccccc1 [Example 26]", "pIC50", ">", 4.00],
  ["CC(C)CCNC(=O)c1nccnc1-c1ccccc1CNC(=O)OC(C)(C)C [Example 7]", "pIC50", ">", 4.00],
  ["CC(CC(=O)NCc1ccccc1-c1cccnc1C(=O)NCCc1ccccn1)c1ccc(F)cc1 (stereo not drawn) [Example 45]", "pIC50", "=", 6.30],
  ["CCOc1ccc(C(=O)NCc2ccccc2-c2cccnc2C(=O)NCCc2ccccn2)cc1 [Example 37]", "pIC50", ">", 4.00],
  ["C[C@H](OC(=O)NCc1cnccc1-c1ccccc1C(=O)NCC1CC1)c1ccccc1 [Example 33]", "pIC50", "=", 5.77],
  ["COc1ccc(CC(=O)NCc2ccccc2-c2ncccc2C(=O)NCc2ccc(F)cc2F)cc1 [Example 51]", "pIC50", ">", 4.00]
]}

====

Target: Kv1.5 channels from humans (Homo sapiens, UniProt P22460)
Construct: expressed in transfected cells; host or cells: Xenopus laevis oocytes injected with in vitro synthesized RNA
Sequence (P22460 whole entry): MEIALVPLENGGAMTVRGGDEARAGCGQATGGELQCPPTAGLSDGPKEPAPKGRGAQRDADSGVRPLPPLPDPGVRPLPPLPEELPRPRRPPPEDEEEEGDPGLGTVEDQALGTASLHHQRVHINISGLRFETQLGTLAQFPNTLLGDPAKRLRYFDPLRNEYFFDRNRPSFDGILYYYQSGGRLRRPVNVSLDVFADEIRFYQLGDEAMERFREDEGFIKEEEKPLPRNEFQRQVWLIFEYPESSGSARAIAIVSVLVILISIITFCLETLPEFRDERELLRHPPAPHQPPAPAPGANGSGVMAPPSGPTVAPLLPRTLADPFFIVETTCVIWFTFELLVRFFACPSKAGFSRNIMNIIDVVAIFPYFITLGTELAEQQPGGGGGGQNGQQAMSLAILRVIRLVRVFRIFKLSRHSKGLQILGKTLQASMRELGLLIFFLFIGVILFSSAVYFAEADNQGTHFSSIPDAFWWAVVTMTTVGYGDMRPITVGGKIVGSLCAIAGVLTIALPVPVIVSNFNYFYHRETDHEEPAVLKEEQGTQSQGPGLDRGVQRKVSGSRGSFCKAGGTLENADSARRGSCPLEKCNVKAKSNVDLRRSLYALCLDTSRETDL
Assay: Kv1.5 currents in Xenopus oocytes, 2-microelectrode voltage clamp
Format: cell-based
Conditions: human Kv1.5 expressed in Xenopus laevis oocytes; voltage jumps to 0 mV and 40 mV lasting 500 ms; room temperature; Hill equation; read-out: IC50
IC50 by entry:

{"columns": ["Mol", "Unit", "Measurement Qualifier", "IC50"],
 "data": [
  ["C[C@@H](O)CNC(=O)c1ncccc1-c1ccccc1CNC(=O)CCc1cccc(OC(F)(F)F)c1", "nM", "<", 100000],
  ["COc1ccc(CC(=O)NCc2ccccc2-c2cccnc2C(=O)Nc2ccc(OC)cc2)cc1", "nM", "<", 100000],
  ["CC(C)(C(=O)NCc1ccccc1-c1cccnc1C(=O)NCC1CC1)c1ccc(Cl)cc1", "nM", "=", 1700],
  ["C[C@H](CC(=O)NCc1ccccc1-c1cccnc1C(=O)NCCc1ccccn1)c1ccccc1", "nM", "=", 900],
  ["CC(C)CCNC(=O)c1cccnc1-c1ccccc1CNC(=O)OCc1ccccc1", "nM", "=", 9000],
  ["CC(C)C[C@H](NC(=O)c1ncccc1-c1ccccc1CNC(=O)O[C@@H](C)c1ccccc1)C(N)=O", "nM", "=", 1200],
  ["C[C@@H](O)CNC(=O)c1ncccc1-c1ccccc1CNC(=O)C(C)(C)c1ccc(Cl)cc1", "nM", "<", 100000]
]}
